biological target: OsWRKY34 (Oryza sativa, UniProt Q0JBA9 1-250); experiment: protein-binding microarray (RPBM); PBS, 2% BSA, 51.3 ng/ul salmon testes DNA, 50 uM zinc acetate, 200 nM TF, 25 C, 1 h; high values mean tight binding; conditions: protein: recombinant; tags: N-terminal polyhistidine and DsRed monomer fusion (pET32a); label: CyDye5-dUTP incorporated in the synthesized complementary strand; 3' TTTTT single-stranded linker to array surface; dsDNA, one strand shown
Sequence (Q0JBA9 entry or part of it): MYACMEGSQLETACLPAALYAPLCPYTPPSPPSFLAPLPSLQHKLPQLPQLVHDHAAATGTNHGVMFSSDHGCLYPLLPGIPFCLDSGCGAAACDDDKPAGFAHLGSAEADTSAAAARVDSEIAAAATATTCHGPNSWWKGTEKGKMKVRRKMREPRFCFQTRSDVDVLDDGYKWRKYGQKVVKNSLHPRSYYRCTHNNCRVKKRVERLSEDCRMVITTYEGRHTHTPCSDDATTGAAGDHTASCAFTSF
Whole data set: some 68,000 sequences, median “fluorescence intensity (a.u.)” near 9,100, cut for the highest 2% near 16,000. The list comes from a sample in which the highest values are over-represented; it also holds close analogues and randomly drawn sequences.
Below, each entry is listed with its recorded binding signal.

Field: example entries. Status: answers known.
ACCACTTAATCTTTATCTTTGTTAGATTCATTACTACTATCGGAGTCACCTAGTGCAG    8310 fluorescence intensity (a.u.)
GCTCCAGATCTGTGGGTGTCTTTGGGTGAGTGGGCAAATACGGAGTCACCTAGTGCAG    11200 fluorescence intensity (a.u.)
TCTCAGCGGCCCGAACCTGTCTACGTCGCCCGTGTCTTGTCGGAGTCACCTAGTGCAG    11200 fluorescence intensity (a.u.)
TGATCGAGAGAGGTGTTGTTGGAAGCTTGGTTGGTTGGGGCGGAGTCACCTAGTGCAG    9000 fluorescence intensity (a.u.)
GCGCATGGTGTTCGGGAAGAAGTACATCGTCGAGGAGGGGCGGAGTCACCTAGTGCAG    8540 fluorescence intensity (a.u.)

# lookup: binding signal of "CTTGCCATGGTGTTGATTTGGGGCGGGAAGAAGCATCGGGCGGAGTCACCTAGTGCAG" 16800 fluorescence intensity (a.u.)

Would you kindly repeat that for "TTTCAGAGCTATTTGGCCTTTAATACACTTTCCTATTAAGCGGAGTCACCTAGTGCAG" ? 8710 fluorescence intensity (a.u.)

Would you kindly repeat that for "GGGATGTCTTGGCTTTTTTTTTTTCTTCACCGAGCAATCGCGGAGTCACCTAGTGCAG" ? 13400 fluorescence intensity (a.u.)

Would you kindly repeat that for "CGTCGGTGTGGTATGCTTGTCGCGCGGCGGCGCGGCCGTACGGAGTCACCTAGTGCAG" ? 8790 fluorescence intensity (a.u.)
